measured on: human CYP11B1 (Homo sapiens (Human), UniProt P15538)
Sequence (P15538 25-503): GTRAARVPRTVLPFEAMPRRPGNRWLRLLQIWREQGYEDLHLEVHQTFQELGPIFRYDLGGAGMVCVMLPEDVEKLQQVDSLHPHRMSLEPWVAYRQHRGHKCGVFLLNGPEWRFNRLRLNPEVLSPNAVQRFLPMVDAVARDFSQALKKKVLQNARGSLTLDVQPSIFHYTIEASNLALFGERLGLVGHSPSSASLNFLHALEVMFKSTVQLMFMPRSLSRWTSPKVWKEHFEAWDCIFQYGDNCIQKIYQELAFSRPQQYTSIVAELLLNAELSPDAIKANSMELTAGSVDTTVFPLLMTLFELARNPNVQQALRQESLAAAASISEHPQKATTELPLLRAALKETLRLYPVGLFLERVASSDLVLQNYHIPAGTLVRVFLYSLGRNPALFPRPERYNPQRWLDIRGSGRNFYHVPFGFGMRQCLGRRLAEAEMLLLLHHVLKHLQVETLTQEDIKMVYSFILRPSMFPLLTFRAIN
measurement notes: G-402 cellular enzyme assay, human CYP11B1 (cortisol release, HTRF)
measurement context: G-402 cells expressing human CYP11B1; 1 μM Deoxycortisol
Known EC50 of a selection of compounds
Your answer should be a plain number; it is taken to be in µM.

compound	measure name	number
OC1(c2ccccc2)CCc2cncc(-c3ccc(C(F)(F)F)cc3F)c21 (single isomer, unassigned; (-)) [Example 10]	EC50	8.13

Record CCN(C)C(=O)CC1CCc2cncc(-c3ccc(C(F)(F)F)cc3F)c21 (racemic) , field EC50: 6

Record summary for C[C@H]1CCCN1C(=O)CC1CCc2cncc(-c3ccc(C(F)(F)F)cc3F)c21 (mixture of isomers) : reported EC50 = 3.97

Per the record, CCOC(=O)CC1CCc2cncc(-c3ccc(C(F)(F)F)c(F)c3)c21 (racemic) has EC50 of 0.367

====

measured on: UniProtKB P15538
measurement notes: G-402 cellular enzyme assay, human CYP11B1 (cortisol release, HTRF)
measurement context: G-402 cells expressing human CYP11B1; 1 μM Deoxycortisol
measure name: EC50
Kindly write the number and append the unit.

Solved cases below.
compound	EC50
OC1(c2ccccc2)CCc2cncc(-c3ccc(C(F)(F)F)cc3F)c21 (racemic) [Example 8]	7.38 µM
OC1CCc2cncc(-c3ccc(C(F)(F)F)c(F)c3)c21 (racemic)	2.34 µM

Quick note, EC50 for NC1CCc2cncc(-c3ccc(C(F)(F)F)c(F)c3)c21 (racemic) landed at 5.35 µM

Sure, the documented EC50 for O=C(CC1CCc2cncc(-c3ccc(C(F)(F)F)c(F)c3)c21)NCC1CC1 (racemic) is 1.15 µM

====

measured on: human CYP11B1 (Homo sapiens (Human), UniProt P15538)
measurement notes: G-402 cellular enzyme assay, human CYP11B1 (cortisol release, HTRF)
measurement context: G-402 cells expressing human CYP11B1; 1 μM Deoxycortisol
Source text: Herein we identified the use of the G-402 cell line as a host cell to ectopically express (transiently or stably) enzymes of the CYP11 family. […] Importantly the identified cell line G-402 expresses co-factors (adrenodoxin and adrenodoxin reductase) important for the activity of the CYP11 family and no relevant enzyme activity of the CYP11 family (in comparison to H295R cells) was detected in these cells. […]
Simple rule here: EC50 less than 3 µM is met, otherwise not met.

Field: example entries. Status: answers known.
compound	class assignment
CN(C(=O)CC1CCc2cncc(-c3ccc(C(F)(F)F)cc3F)c21)C1CC1 (racemic) [Example 22]	not met
O=C(CC1CCc2cncc(-c3ccc(C(F)(F)F)c(F)c3)c21)Nc1cc[nH]n1 (racemic) [Example 18]	met
O=C(CC1CCc2cncc(-c3ccc(C(F)(F)F)c(F)c3)c21)N1CCOCC1 (racemic) [Example 16]	not met
O=C(CC1CCc2cncc(-c3ccc(C(F)(F)F)c(F)c3)c21)N1CCCCC1 (racemic) [Example 15]	not met
OC1(c2ccccc2)CCc2cncc(-c3ccc(C(F)(F)F)cc3F)c21 (single isomer, unassigned; (+)) [Example 9]	not met
CC(C)N(C)C(=O)CC1CCc2cncc(-c3ccc(C(F)(F)F)cc3F)c21 (racemic) [Example 21]	not met
O=C(CC1CCc2cncc(-c3ccc(C(F)(F)F)c(F)c3)c21)Nc1ccon1 (racemic) [Example 17]	met
OC1CCc2cncc(-c3ccc(C(F)(F)F)cc3F)c21 (racemic) [Example 5]	not met

Field: below-cutoff. Rule: recorded EC50 strictly less than 3 µM. Subject: CCN(C(=O)CC1CCc2cncc(-c3ccc(C(F)(F)F)cc3F)c21)C1CC1 (racemic) [Example 23]
not met

I'd appreciate it if you could check whether CNC(=O)CC1CCc2cncc(-c3ccc(C(F)(F)F)c(F)c3)c21 (racemic) [Example 12] has EC50 smaller than 3 µM.
met

Does the reported EC50 of the following compound sit strictly below 3 µM? CC1(O)CCc2cncc(-c3ccc(C(F)(F)F)cc3F)c21 (racemic) [Example 6]
not met
